Every entry's value here was drawn from ChEMBL document CHEMBL1201861.

# Tested on: NCI-H2087;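 also: growth inhibition determined with a cell viability readout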
# protocol.summary: cells
# Type: functional, cell-based
# settings: Homo sapiens
# Description: SANGER: Inhibition of human NCI-H2087 cell growth in a cell viability assay.
quantity.measured: pIC50
Reminder that pIC50 is minus the log10 of a molar concentration.

In the examples that follow, each entry is paired with its recorded pIC50.
{"columns": ["structure.notation", "pIC50"],
 "data": [
  ["Fc1cc(-c2cc[nH]/c(=N/c3ccc(-n4cnc(N5CCOCC5)n4)cc3)n2)cc(N2CCOCC2)c1", 6.47],
  ["CCNC(=O)c1noc(-c2cc(C(C)C)c(O)cc2O)c1-c1ccc(CN2CCOCC2)cc1", 7.48]
]}

// below: pIC50 requested for another molecule
Ask: Returns the measured pIC50 for the input molecule. Input: `CO[C@@]12[C@H](COC(N)=O)C3=C(C(=O)C(C)=C(N)C3=O)N1C[C@@H]1N[C@@H]12`
Result: 7.07

* * *

Entries annotated with measured IC50
# Test system: UMUC3;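 also: growth inhibition of human UM-UC-3 cells, read out with a cell viability assay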
# protocol.summary: cells
# Format: functional, cell-based
# settings: Homo sapiens
# Description: SANGER: Inhibition of human UM-UC-3 cell growth in a cell viability assay.

In the examples that follow, each entry is paired with its recorded IC50.
{"columns": ["compound", "system.name", "val"],
 "data": [
  ["Cn1c(=O)n(-c2ccc(C(C)(C)C#N)cc2)c2c3cc(-c4cnc5ccccc5c4)ccc3ncc21 [DACTOLISIB]", "UMUC3", "< 7.81 nM"],
  ["Cn1cc(/C=C2\\C(=O)Nc3cccnc32)c2ccccc21", "UMUC3", "> 2000 nM"]
]}

// below: IC50 requested for another compound
Ask: Returns the measured IC50 for the input compound. Input: COc1cc(Nc2c(C#N)cnc3cc(OCCCN4CCN(C)CC4)c(OC)cc23)c(Cl)cc1Cl [BOSUTINIB]
Result: > 2000 nM

* * *

# Test system: KYSE-140
# protocol.summary: cells
# Format: functional, cell-based
# settings: Homo sapiens
# Description: SANGER: Inhibition of human KYSE-140 cell growth in a cell viability assay.
pIC50: −log10 of the molar value.
Entries annotated with measured pIC50

In the examples that follow, each entry is paired with its recorded pIC50.
{"columns": ["molecule", "pIC50"],
 "data": [
  ["C/C(O)=C(\\C#N)C(=O)Nc1cc(Br)ccc1Br", "< 4.80"],
  ["CCCS(=O)(=O)Nc1ccc(F)c(C(=O)c2c[nH]c3ncc(Cl)cc23)c1F", "< 5.00"],
  ["CC(O)(CS(=O)(=O)c1ccc(F)cc1)C(=O)Nc1ccc(C#N)c(C(F)(F)F)c1 (centres undefined) [BICALUTAMIDE]", "< 5.99"]
]}

// below: pIC50 requested for another molecule
Ask: I'm curious: which pIC50 was measured for `CC(=O)c1c(C)c2cnc(Nc3ccc(N4CCNCC4)cn3)nc2n(C2CCCC2)c1=O` tested on KYSE-140?;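 also: cell viability assay measuring growth inhibition in human KYSE-140 cells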
Result: < 5.40

* * *

# Test system: NCI-H1770;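 also: growth inhibition of NCI-H1770 cells determined with a viability readout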
# protocol.summary: cells
# Format: functional, cell-based
# settings: Homo sapiens
# Description: SANGER: Inhibition of human NCI-H1770 cell growth in a cell viability assay.
Entries annotated with measured IC50

In the examples that follow, each entry is paired with its recorded IC50.
{"columns": ["structure.notation", "IC50"],
 "data": [
  ["Cc1nc(Nc2ncc(C(=O)Nc3c(C)cccc3Cl)s2)cc(N2CCN(CCO)CC2)n1", "> 1.28 µM"],
  ["Cn1cc(/C=C2\\C(=O)Nc3cccnc32)c2ccccc21", "> 2 µM"],
  ["Cc1n[nH]c2ccc(-c3cncc(OC[C@@H](N)Cc4c[nH]c5ccccc45)c3)cc12", "> 1.02 µM"],
  ["CCCS(=O)(=O)Nc1ccc(F)c(C(=O)c2c[nH]c3ncc(Cl)cc23)c1F", "> 10 µM"],
  ["COc1cc(Nc2c(C#N)cnc3cc(OCCCN4CCN(C)CC4)c(OC)cc23)c(Cl)cc1Cl", "> 2 µM"]
]}

// below: IC50 requested for another compound
Ask: Returns the measured IC50 for the input compound. Input: `C[C@]1(c2nc3c(C(N)=O)cccc3[nH]2)CCCN1`
Result: > 5 µM
